# System: Bacillus subtilis
# Assay Remarks: Antimicrobial activity against Bacillus subtilis […] after 18 hrs by broth microdilution method
# Type: functional
Readout Kind: log10 MIC (log10 of the value in µM)

>  <Line Notation>
O=C(O)c1cn(C2CC2)c2cc(N3CCN(Cn4nc(-c5ccccc5O)n(-c5ccccc5)c4=S)CC3)c(F)cc2c1=O

>  <log10 MIC>
-0.41

$$$$
>  <Line Notation>
O=C(O)c1cn(C2CC2)c2cc(N3CCN(Cn4nc(-c5ccccc5O)n(Cc5ccccc5)c4=S)CC3)c(F)cc2c1=O

>  <log10 MIC>
-1.32

$$$$
>  <Line Notation>
O=C(O)c1cn(C2CC2)c2cc(N3CCN(Cn4nc(-c5ccccc5O)n(Cc5ccc(F)cc5)c4=S)CC3)c(F)cc2c1=O

>  <log10 MIC>
-1.96

$$$$
>  <Line Notation>
O=C(O)c1cn(C2CC2)c2cc(N3CCN(Cn4nc(-c5cccc(O)c5)n(-c5ccccc5)c4=S)CC3)c(F)cc2c1=O

>  <log10 MIC>
-1.01

$$$$
>  <Line Notation>
COc1ccc(-n2c(-c3ccccc3O)nn(CN3CCN(c4cc5c(cc4F)c(=O)c(C(=O)O)cn5C4CC4)CC3)c2=S)cc1

>  <log10 MIC>
-1.03

$$$$
>  <Line Notation>
O=C(O)c1cn(C2CC2)c2cc(N3CCN(Cn4nc(-c5ccc(O)cc5)n(Cc5ccccc5)c4=S)CC3)c(F)cc2c1=O

>  <log10 MIC>
-0.11

$$$$
>  <Line Notation>
O=C(O)c1cn(C2CC2)c2cc(N3CCN(Cn4nc(-c5ccc(O)cc5)n(-c5ccc(F)cc5)c4=S)CC3)c(F)cc2c1=O

>  <log10 MIC>
-1.32

$$$$
>  <Line Notation>
O=C(O)c1cn(C2CC2)c2cc(N3CCN(Cn4nc(-c5ccc(O)cc5)n(-c5ccccc5)c4=S)CC3)c(F)cc2c1=O

>  <log10 MIC>
-1.62

$$$$

Values from ChEMBL document CHEMBL3421560
